B1: NLV2 TCR alpha chain (CDR3α only) (parent)
chain: AGPMKTSYDKVI

Variants of: B1
assay_text: T-Switch: Jurkat TCRβ−/− cells expressing a CDR3 saturation-mutagenesis library, stained with two peptide-HLA-A*02:01 tetramers (original and novel peptide) plus anti-CD3, FACS-sorted into four gates, gDNA sequenced
cond: with both tetramers (double-negative gate, binds neither): HLA-A*02:01 with … and with …, tetramers 1 µg/mL, 30 min on ice, SP, DP and SW gates expanded about 10 days between rounds ('two to three rounds of selection' in the Methods), gate DN: OPPOSITE: higher = more of the variant in the gate that binds neither peptide = LESS binding (or no expression; inferred). Fold enrichment of the CDR3 variant in one FACS gate of a two-tetram, unresolved parent, parent is a CDR3 fragment, scale: fold enrichment, numbering: sequential-on-construct, sequence starts at 1
readout_type: enrichment

variant_key="[…] (CDR3 as printed); Y8K derived by comparing it with the table's wild-type CDR3 AGPMKTSYDKVI" measured=0.928
variant_key="[…] (CDR3 as printed); K10N derived by comparing it with the table's wild-type CDR3 AGPMKTSYDKVI" measured=1.16
variant_key="[…] (CDR3 as printed); V11A derived by comparing it with the table's wild-type CDR3 AGPMKTSYDKVI" measured=1.13
variant_key="[…] (CDR3 as printed); V11Y derived by comparing it with the table's wild-type CDR3 AGPMKTSYDKVI" measured=1.04
variant_key="[…] (CDR3 as printed); A1S derived by comparing it with the table's wild-type CDR3 AGPMKTSYDKVI" measured=0.736
variant_key="[…] (CDR3 as printed); M4I derived by comparing it with the table's wild-type CDR3 AGPMKTSYDKVI" measured=0.318
variant_key="[…] (CDR3 as printed); P3C derived by comparing it with the table's wild-type CDR3 AGPMKTSYDKVI" measured=0.884
variant_key="[…] (CDR3 as printed); T6G derived by comparing it with the table's wild-type CDR3 AGPMKTSYDKVI" measured=1.02
variant_key="[…] (CDR3 as printed); D9V derived by comparing it with the table's wild-type CDR3 AGPMKTSYDKVI" measured=0.959
variant_key="[…] (CDR3 as printed); M4P derived by comparing it with the table's wild-type CDR3 AGPMKTSYDKVI" measured=1
variant_key="[…] (CDR3 as printed); V11K derived by comparing it with the table's wild-type CDR3 AGPMKTSYDKVI" measured=1.49
